Data provenance is patent US11566007B2.

Collected IC50 values appear next to each entry.
systemUnderTest: K-Ras G13C (Homo sapiens (Human), UniProt P01116+P62937, G13C)
Sequence (P01116-2 other isoform, or with tags, fused parts or gaps G13C): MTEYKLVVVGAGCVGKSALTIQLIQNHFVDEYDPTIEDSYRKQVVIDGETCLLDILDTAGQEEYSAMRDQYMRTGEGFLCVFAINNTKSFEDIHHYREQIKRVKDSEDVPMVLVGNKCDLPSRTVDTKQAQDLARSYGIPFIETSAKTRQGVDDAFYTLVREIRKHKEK
Sequence (P62937 whole entry): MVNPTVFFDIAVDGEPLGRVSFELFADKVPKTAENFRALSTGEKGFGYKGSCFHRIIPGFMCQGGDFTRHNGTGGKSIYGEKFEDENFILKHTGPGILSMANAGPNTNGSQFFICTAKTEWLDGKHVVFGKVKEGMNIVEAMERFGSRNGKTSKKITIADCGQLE
assay: Ras-Raf (BRAF RBD) disruption / FRET / MOA assay, KRAS G13C
Format: biochemical
testContext: KRAS G13C; Ras-Raf disruption/FRET/MOA assay; read-out: IC50* KRAS G13C FRET data

Use these answered entries as a reference point.
Input C=CC(=O)N1CCOC2(CCN(C(=O)N(C)[C@H](C(=O)N[C@H]3Cc4cc(CF)cc(c4)-c4ccc5c(c4)c(c(-c4cccnc4[C@H](C)OC)n5CC(F)(F)F)CC(C)(C)COC(=O)[C@@H]4CCCN(N4)C3=O)C(C)C)CC2)C1 (atropisomer, axis not shown) . Output IC50: 0.01 to 0.1 µM

Input CO[C@@H](C)c1ncccc1-c1c2c3cc(ccc3n1CC(F)(F)F)-c1cc(cc(C(F)F)c1)C[C@H](NC(=O)[C@H](C(C)C)N(C)C(=O)[C@H]1CCN(C(=O)C#CC(C)(C)N3CCC3)C1)C(=O)N1CCC[C@H](N1)C(=O)OCC(C)(C)C2 (atropisomer, axis not shown) . Output IC50: 0.1 to 1 µM

Input C=CC(=O)N1CCN(C(=O)N(C)[C@H](C(=O)N[C@H]2Cc3nc(cs3)-c3ccc4c(c3)c(c(-c3cccnc3[C@H](C)OC)n4CC)CC(C)(C)COC(=O)[C@@H]3CCCN(N3)C2=O)C(C)C)[C@@H]2C[C@@H]21 (atropisomer, axis not shown) . Output IC50: 0.01 to 0.1 µM

Kindly review the next molecule as well.
Input C=CC(=O)N1CC[C@H](C(=O)N(C)[C@H](C(=O)N[C@H]2Cc3cccc(c3)-c3ccc4c(c3)c(c(-c3cc(C5=CCN(C)CC5)cnc3[C@H](C)OC)n4CC)CC(C)(C)COC(=O)[C@@H]3CCCN(N3)C2=O)C(C)C)C1 (atropisomer, axis not shown) [Example A514] . Output IC50: 1 to 10 µM
